test system: CLZ3 (HCA2 human fibroblast dual HR-NHEJ reporter); assay: HR repair efficiency (tdTomato+ cells) relative to control (log10 fold); higher = more homologous recombination; conditions: 5 µM; doxycycline 0.5 ug/mL;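 also: compound given one day before doxycycline, which switches on I-SceI endonuclease expression to create double-strand breaks within the integrated reporter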
metric: HR repair efficiency (log10)
Give the figure only, with no unit attached.

Known results for compounds:
compound	HR repair efficiency (log10)
COc1cc2occc2c2oc(=O)ccc12 [Isobergapten]	-0.063
CC[C@H]1CN2CC[C@]3(C(=O)Nc4ccccc43)[C@@H]2C[C@@H]1/C(=C\OC)C(=O)OC [Rhynchophylline]	-0.0611
C/C=C/C#CC#C/C=C/c1ccco1 [Atractylodin]	0.114

In the following, a different compound is considered.
# input # get_value(readout='HR repair efficiency (log10)', item= CCN1C[C@@]2(COC)[C@H]3[C@@H](OC)[C@H]4C1[C@]3([C@@H](OC)C[C@H]2OC(C)=O)[C@@H]1C[C@@]2(O)[C@H](OC(=O)c3ccccc3)[C@@H]1[C@]4(OC(C)=O)[C@@H](O)[C@@H]2OC [Acetylaconitine] )
# output -0.0667
